- Tested on: U251 CNS
- TEST PROTOCOL: NCI tumour cell line growth inhibition, 48 h
Reported TGI values for the following molecules.

Below: 5 molecules and their reported TGI.
C#CCOCn1cnc2c(N)ncnc21 | > 100 µM
Clc1ccc2c(NCCNc3nc(N4CCCCC4)nc4ccccc34)ccnc2c1 | 5.15 µM
CC1(C)OC2C(O1)[C@H]1OC(C(Cl)(Cl)Cl)=N[C@H]1C(I)[C@H]2N1C(=O)c2ccccc2C1=O (stereo partly drawn) | > 100 µM
CCOc1ccc2c(c1)[n+]([O-])c(-c1ccc([N+](=O)[O-])cc1)c(N)[n+]2[O-] | > 100 µM
Cc1cc(=O)[nH]c(S(=O)(=O)NC(=O)Nc2cccc(Cl)c2)n1 | > 100 µM

Field request: TGI | item: O=c1c2cc(Br)ccc2n(C2OC(CO)C(O)C(O)C2O)c(=S)n1-c1ccccc1 (stereo not drawn) > 100 µM

Same question for "CN(C)c1ccc(/C=C2\C[C@H]3[C@@H]4CC=C5C[C@@H](O)CC[C@]5(C)[C@H]4CC[C@]3(C)[C@H]2O)cc1" please. 22.6 µM

Do the same for "[N-]=[N+]=Nc1nnc(CCCCc2nnc(N=[N+]=[N-])o2)o1" please > 100 µM

----------
Each item that follows carries a reported TGI.
- Test system: SF-268 CNS
- TEST PROTOCOL: NCI tumour cell line growth inhibition, 48 h

These solved cases illustrate the format of a correct answer.
CCOC(=O)COc1cc(-c2ccccc2)nc2cc(F)ccc12 | > 100 µM
COc1ccc(-c2cncn2-c2ccc(-c3nc4cc(OC)c(OC)c(OC)c4s3)cc2)cc1N | > 100 µM
CC(C)C1COC(C(C)(C)C2=N[C@@H](C(C)C)CO2)=N1 (some centres undefined) | > 100 µM

Consider the compound "Cc1ccc([N+](=O)[O-])cc1NC(=O)/C(CC(=O)c1sc(C(N)=S)nc1C)=N\N" and give its measured TGI. > 100 µM

Cool, now "COc1ccc(/C=N/NC(=O)CSc2nc(-c3ccccc3)c(-c3ccccc3)[nH]2)cc1OC" > 100 µM

Proceed to "Cc1ccc(S(=O)(=O)Nc2cc(=O)[nH]c3c2CCC3)cc1" > 100 µM

Query "Fc1c(F)c(F)c(CSc2nc3ccccc3[nH]2)c(F)c1F" next > 100 µM

And what about the compound COC(=O)C1OC(SCCN)C(O)C(O)C1O (centres undefined) ? > 100 µM

Also COc1ccccc1N1CCN(CC(O)Cn2c(=O)c3c(OC)nc(C)cc3c(=O)n2-c2ccccc2)CC1 (centres undefined) , if possible. > 100 µM

Param item: "[N-]=[N+]=Nc1nnc(CCCCc2nnc(N=[N+]=[N-])o2)o1" > 100 µM

----------
- Test system: MOLT-4 leukemia
- TEST PROTOCOL: NCI tumour cell line growth inhibition, 48 h
MEASURED PARAMETER: TGI

C[C@@H]1C[C@@H]2C(=O)N(c3ccccc3)C(=O)[C@@H]2c2[nH]c3ccc(Br)cc3c21 | > 100 µM

Would you kindly share the measured TGI for "O=C(Cn1c2c(c3ccccc31)CCCC2)N1CCOCC1" ? > 100 µM

Would you kindly repeat that for "CC(=O)OCc1ncccc1C(OC(C)=O)OC(C)=O" ? > 100 µM

Cool, now COC(=O)C1OC(SCCN)C(O)C(O)C1O (stereo unspecified) > 100 µM

Again, but for "C#CCn1c2c(c3ccccc3c1=O)C(=O)c1ccccc1-2" > 100 µM

Okay, and "Nc1nc(Cl)cc(NCC2(CO)CC=CC2)n1" ? > 100 µM

Can you check COc1ccccc1N1CCN(CC(O)Cn2c(=O)c3c(OC)nc(C)cc3c(=O)n2-c2ccccc2)CC1 (stereo unspecified) next? > 100 µM

Now the molecule "COc1ccc(/C=N/NC(=O)CSc2nc(-c3ccccc3)c(-c3ccccc3)[nH]2)cc1OC" 37.6 µM

Then "CC1=CC[C@@H]2C(=O)C=CC=C[C@H]12.[C-]#[O+].[C-]#[O+].[C-]#[O+].[Fe]" ? > 100 µM

Next molecule: Cc1ccc(C2SCc3nc4ccccc4n32)cc1 (stereo unspecified) 15.3 µM

Let us now turn to "CCCCCC/C=C\CCCCCCCCCc1cccc(OC)c1O" > 100 µM
